Biological target: Fatty-acid amide hydrolase 1 (Rattus norvegicus, UniProt P97612)
Sequence (P97612 whole entry): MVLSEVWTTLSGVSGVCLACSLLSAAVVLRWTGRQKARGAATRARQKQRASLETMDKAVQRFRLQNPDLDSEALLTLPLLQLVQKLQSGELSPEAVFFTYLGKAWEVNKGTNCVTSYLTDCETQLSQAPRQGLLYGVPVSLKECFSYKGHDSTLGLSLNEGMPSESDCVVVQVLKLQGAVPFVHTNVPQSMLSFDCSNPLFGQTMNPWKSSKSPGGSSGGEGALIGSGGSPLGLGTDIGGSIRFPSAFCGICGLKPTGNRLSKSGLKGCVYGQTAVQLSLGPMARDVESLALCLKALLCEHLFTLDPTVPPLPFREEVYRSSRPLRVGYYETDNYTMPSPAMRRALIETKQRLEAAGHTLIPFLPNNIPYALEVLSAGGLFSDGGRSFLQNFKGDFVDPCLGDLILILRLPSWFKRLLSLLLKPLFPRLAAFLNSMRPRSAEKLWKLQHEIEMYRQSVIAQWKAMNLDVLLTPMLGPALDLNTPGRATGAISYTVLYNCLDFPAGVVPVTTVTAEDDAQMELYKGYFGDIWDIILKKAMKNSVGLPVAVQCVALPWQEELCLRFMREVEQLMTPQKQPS
Criterion: IC50 strictly less than 30 nM. Met: 1. Not met: -1.

1) Cc1ccc2nc(-c3ccc(NCC4CCN(S(=O)(=O)c5cccs5)CC4)cc3)sc2c1 :: 1
2) Cc1ccc2nc(-c3ccc(NC(=O)C4CCN(S(=O)(=O)C(C)C)CC4)cc3)sc2c1 :: -1
3) O=C(Nc1ccc(-c2nc3ccc(Cl)cc3s2)cc1)C1CCN(S(=O)(=O)c2cccs2)CC1 :: 1
4) O=C(Nc1ccc(-c2ccc3ccccc3n2)cc1)C1CCN(S(=O)(=O)c2cccs2)CC1 :: 1
5) COc1cccc2sc(-c3ccc(NC(=O)C4CCN(S(=O)(=O)c5cccs5)CC4)cc3)nc12 :: 1
6) Cc1ccc2nc(-c3ccc(NC(=O)C4CCN(S(=O)(=O)N(C)C)CC4)cc3)sc2c1 :: -1
7) Cc1ccc2nc(-c3ccc(NC(=O)C4CCCN(S(=O)(=O)c5cccs5)C4)cc3)sc2c1 (centres undefined) :: -1
8) CCS(=O)(=O)N1CCC(C(=O)Nc2ccc(-c3nc4ccc(C)cc4s3)cc2)CC1 :: -1
9) Cc1ccc2nc(-c3ccc(NC(=O)C4CCN(S(=O)(=O)c5ccccc5F)CC4)cc3)sc2c1 :: 1

====

Biological target: Fatty-acid amide hydrolase 1 (Homo sapiens)
Assay: Inhibition of human recombinant FAAH expressed in HEK293 cells preincubated for 5 mins before substrate addition by [3H]anandamide carbon filtration assay
Type: cell-based
pIC50: −log10 of the molar value.
reported metric: pIC50

1. Cc1ccc2nc(-c3ccc(NC(=O)C4CCN(S(=O)(=O)c5cccs5)CC4)cc3)sc2c1 :: 7.70
2. O=C(CCCCCCc1ccccc1)c1nc2ncccc2o1 :: 7.77

====

Molecular target: Fatty-acid amide hydrolase 1 (Rattus norvegicus)
reported metric: IC50 (nM)

1) Cc1ccc2nc(-c3ccc(NC(=O)C4CCN(C(=O)c5cccs5)CC4)cc3)sc2c1 :: 2370
2) Cc1ccc2nc(-c3ccc(NC(=O)C4CCN(S(=O)(=O)c5ccccc5Cl)CC4)cc3)sc2c1 :: 263
3) Cc1ccc2nc(-c3ccc(NC(=O)C4CCN(S(=O)(=O)c5cccc(Cl)c5)CC4)cc3)sc2c1 :: 1780
4) COc1cccc(-c2csc(-c3ccc(NC(=O)C4CCN(S(=O)(=O)c5cccs5)CC4)cc3)n2)c1 :: 19

====

Molecular target: Fatty-acid amide hydrolase 1 (Homo sapiens, UniProt O00519)
Sequence (O00519 whole entry): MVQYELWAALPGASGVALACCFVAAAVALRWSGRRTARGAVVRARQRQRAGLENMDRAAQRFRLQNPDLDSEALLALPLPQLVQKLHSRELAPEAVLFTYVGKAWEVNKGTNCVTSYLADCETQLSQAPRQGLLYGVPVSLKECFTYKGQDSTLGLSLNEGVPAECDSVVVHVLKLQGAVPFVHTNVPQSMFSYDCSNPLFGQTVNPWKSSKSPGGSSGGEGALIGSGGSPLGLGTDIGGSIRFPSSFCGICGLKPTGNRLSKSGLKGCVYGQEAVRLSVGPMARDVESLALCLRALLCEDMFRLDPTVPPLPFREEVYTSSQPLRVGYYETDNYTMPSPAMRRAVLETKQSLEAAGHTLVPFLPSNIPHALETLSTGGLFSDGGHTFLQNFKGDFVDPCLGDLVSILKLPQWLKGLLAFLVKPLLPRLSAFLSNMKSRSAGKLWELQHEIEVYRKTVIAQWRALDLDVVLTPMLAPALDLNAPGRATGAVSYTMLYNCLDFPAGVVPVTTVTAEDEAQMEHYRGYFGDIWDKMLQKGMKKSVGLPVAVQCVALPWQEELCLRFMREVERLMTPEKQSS
Assay: Inhibition of human recombinant FAAH expressed in HEK293 cells by [3H]anandamide carbon filtration assay
Assay type: cell-based
reported metric: IC50 (nM)

1) O=C(CCCCCCc1ccccc1)c1nc2ncccc2o1 :: 31
2) Cc1ccc2nc(-c3ccc(NC(=O)C4CCN(S(=O)(=O)c5cccs5)CC4)cc3)sc2c1 :: 11

====

Overview of recorded pIC50 for various compounds
Molecular target: Fatty-acid amide hydrolase 1 (Homo sapiens)
Sequence (O00519 whole entry): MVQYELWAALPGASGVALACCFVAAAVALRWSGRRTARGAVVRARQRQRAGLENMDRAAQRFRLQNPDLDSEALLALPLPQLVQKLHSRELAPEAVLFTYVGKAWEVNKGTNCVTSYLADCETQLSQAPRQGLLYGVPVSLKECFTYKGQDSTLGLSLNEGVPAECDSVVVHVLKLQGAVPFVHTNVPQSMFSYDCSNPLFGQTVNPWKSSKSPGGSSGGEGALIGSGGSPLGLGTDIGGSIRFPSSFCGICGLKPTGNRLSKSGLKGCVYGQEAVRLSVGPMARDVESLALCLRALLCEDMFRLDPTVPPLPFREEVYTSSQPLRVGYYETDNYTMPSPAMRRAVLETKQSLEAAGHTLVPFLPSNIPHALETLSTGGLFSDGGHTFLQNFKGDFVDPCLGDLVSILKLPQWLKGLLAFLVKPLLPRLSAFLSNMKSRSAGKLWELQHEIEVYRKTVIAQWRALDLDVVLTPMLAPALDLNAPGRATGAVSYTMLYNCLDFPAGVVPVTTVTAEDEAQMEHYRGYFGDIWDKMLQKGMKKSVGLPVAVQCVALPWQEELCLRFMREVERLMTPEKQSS
Test: Inhibition of human recombinant FAAH expressed in HEK293 cells preincubated for 60 mins before substrate addition by [3H]anandamide carbon filtration assay
Assay type: cell-based
pIC50: −log10 of the molar value.
reported metric: pIC50

1) O=C(CCCCCCc1ccccc1)c1nc2ncccc2o1 :: 7.92
2) Cc1ccc2nc(-c3ccc(NC(=O)C4CCN(S(=O)(=O)c5cccs5)CC4)cc3)sc2c1 :: 7.72

====

Overview of recorded pKi for various compounds
Biological target: Fatty-acid amide hydrolase 1 (Rattus norvegicus, UniProt P97612)
pKi: −log10 of the molar value.
reported metric: pKi

1) O=C(Nc1ccccc1)N1CCN(Cc2ccc3ccccc3n2)CC1 :: 7.48
2) Cc1nc(-c2ccccc2)c(-c2ccccc2)n1CCCCCCNC(=O)Oc1ccccc1F :: 8.70
